The measured values listed here are drawn from ChEMBL document CHEMBL3217663.

experiment: Antiproliferative activity against NHLF assessed as growth inhibition after 24 to 72 hrs by MTS assay; settings: human, NHLF cells
As shown below, each of these compounds has a reported GI50 value.
Write it as a number; the unit nM goes unstated.

Solved cases (2 shown):
CC(=O)O[C@@H](C)/C=C\C(=O)N[C@@H]1C[C@H](C)[C@H](C/C=C(C)/C=C/[C@H]2OC(C)(C)C[C@@]3(CO3)[C@@H]2O)O[C@@H]1C: 0.91
CO[C@@H]1[C@@H](/C=C/C(C)=C/C[C@@H]2O[C@H](C)[C@H](NC(=O)/C=C\[C@H](C)OC(=O)N3CCOCC3)C[C@@H]2C)OC(C)(C)C[C@@]12CO2: 12

Here is the next item to consider.
Requested field: GI50. Item: "COc1cccc2c1C(=O)c1c(O)c3c(c(O)c1C2=O)C[C@@](O)(C(=O)CO)C[C@@H]3O[C@H]1C[C@H](N)[C@H](O)[C@H](C)O1"
223

----------
assay: Therapeutic index, ratio of GI50 for human HCT116 cells to GI50 for HMEC; type: cell-based, HCT-116; conditions: HCT116 cells and HMEC cells, read-out: RatioGI50
PARAMETER: selectivity ratio
Give a plain numeric answer without units written out.

CC(=O)O[C@@H](C)/C=C\C(=O)N[C@@H]1C[C@H](C)[C@H](C/C=C(C)/C=C/[C@H]2OC(C)(C)C[C@@]3(CO3)[C@@H]2O)O[C@@H]1C: 1.6

Here is the next item to consider.
Requested field: selectivity ratio. Item: "CO[C@@H]1[C@@H](/C=C/C(C)=C/C[C@@H]2O[C@H](C)[C@H](NC(=O)/C=C\[C@H](C)OC(=O)N3CCOCC3)C[C@@H]2C)OC(C)(C)C[C@@]12CO2"
3.5

----------
assay: Half life in mouse serum; format: ADME
PARAMETER: half-life (h)
Write it as a number; the unit h goes unstated.

CC(=O)O[C@@H](C)/C=C\C(=O)N[C@@H]1C[C@H](C)[C@H](C/C=C(C)/C=C/[C@H]2OC(C)(C)C[C@@]3(CO3)[C@@H]2O)O[C@@H]1C: 2

Requested field: half-life. Item: "CC(/C=C/[C@H]1OC(C)(C)C[C@@]2(CO2)[C@@H]1O)=C\C[C@@H]1O[C@H](C)[C@H](NC(=O)/C=C\[C@H](C)OC(=O)N2CCOCC2)C[C@@H]1C"
13

----------
experiment: Therapeutic index, ratio of GI50 for human HCT116 cells to GI50 for HUVEC; type: cell-based, HCT-116; conditions: HCT116 cells and HUVEC cells, read-out: RatioGI50
PARAMETER: selectivity ratio
Give a plain numeric answer without units written out.

CO[C@@H]1[C@@H](/C=C/C(C)=C/C[C@@H]2O[C@H](C)[C@H](NC(=O)/C=C\[C@H](C)OC(=O)N3CCOCC3)C[C@@H]2C)OC(C)(C)C[C@@]12CO2: 1.5

Here is the next item to consider.
Requested field: selectivity ratio. Item: "CC(=O)O[C@@H](C)/C=C\C(=O)N[C@@H]1C[C@H](C)[C@H](C/C=C(C)/C=C/[C@H]2OC(C)(C)C[C@@]3(CO3)[C@@H]2O)O[C@@H]1C"
1

----------
test: Therapeutic index, ratio of GI50 for human HCT116 cells to GI50 for NHDF; assay type: cell-based, HCT-116; settings: HCT116 cells and NHDF cells, read-out: RatioGI50
As shown below, each of these molecules has a reported selectivity ratio value.

CC(=O)O[C@@H](C)/C=C\C(=O)N[C@@H]1C[C@H](C)[C@H](C/C=C(C)/C=C/[C@H]2OC(C)(C)C[C@@]3(CO3)[C@@H]2O)O[C@@H]1C: 6

Requested field: selectivity ratio. Item: "CO[C@@H]1[C@@H](/C=C/C(C)=C/C[C@@H]2O[C@H](C)[C@H](NC(=O)/C=C\[C@H](C)OC(=O)N3CCOCC3)C[C@@H]2C)OC(C)(C)C[C@@]12CO2"
15
